# method: HepG2 liver cancer cell viability effects, profiling panel, resazurin fluorescence, 24 h, PK04 Diversity Set (AID 1172); note: test concentration not given here
# details: higher = more signal
// thresholds for z-score classes: category 1 (below -0.6), category 2 (-0.6 to below 0.04), category 3 (0.04 or more)

Hi there! Could you help me figure out the category for `CCOC(=O)C1=C(C(=O)OCC)N(S(=O)(=O)CC[Si](C)(C)C)[C@H](c2ccccc2)CC1` please? category 3

Hello team, could you let me know which band the following molecule falls into: `COC(=O)[C@@]1(CCS(=O)(=O)c2ccccc2)N=C(c2ccc(OCCCO)cc2)O[C@H]1c1ccccc1N=[N+]=[N-]` category 1

Using the reported z-score, which band applies to N#Cc1ccc(C(O)C2C=CC3C(=O)NC(=O)C3N2Nc2ccccn2)cc1 (stereo unspecified) ? category 1

Which z-score band matches `C=C(CCCC)C(=O)CC[C@H](OC(=O)c1cccnc1)c1ccc(CO)o1` ? category 2

For this molecule, which bin applies? `COc1ccc([Si](C)(C)[C@H]2[C@H](CCn3cc([C@H](O)c4ccccc4)nn3)O[C@@]3(C(=O)N(C)c4c(Br)cc(C)cc43)[C@@H]2C)cc1` category 1

Just checking, what class would you give `[N-]=[N+]=NCc1ccccc1C[C@@]1(C(=O)O)N=C(c2ccc(OCCCO)cc2)O[C@@H]1c1ccccc1CN=[N+]=[N-]` here? category 3

GET /class?item= `CN1C(=O)[C@]2(CCC(=O)OC(C)(C)C)N=C(c3ccc(OCCCO)cc3)O[C@@H]2c2ccccc21` category 3

Input `O=C1c2ccccc2[C@](Cc2ccccc2I)(C(=O)O)[C@H](c2ccc(CO)cc2)N1Cc1ccccc1` ; output its category category 2

Input `COCCOC(=O)N1C(=O)[C@@]2(c3ccccc31)[C@H](c1ccc(OCCO)cc1)N1[C@H](c3ccccc3)[C@H](c3ccccc3)OC(=O)[C@H]1[C@@H]2C(=O)N1CCN(c2ncccn2)CC1` ; output its category category 3

Band for `COC(=O)[C@@]1(Cc2ccc(F)cc2)[C@H]2c3cc(C(=O)N4CCCC4)n(CCO)c3C[C@H]2CN1C(=O)c1ccccc1` ? category 2

State the class of the molecule shown: CC1CC/C=C\[C@H]2OC34C=CCN(c5ccc(Cl)cc5)C(=O)[C@H]3N(CCCO)C(=O)[C@]4(C)C2C(=O)O1 (stereo partly specified) category 1

Which of the defined bands does the recorded z-score of `COc1ccc(CC[C@H](O)c2cccc(OCC(=O)OC(C)(C)C)c2)cc1` sit within? category 3

Hi, small favor: classify `C=CCN1C(=O)[C@]2(O[C@H](CCO)[C@@H]([Si](C)(C)c3ccc(OC)cc3)[C@@H]2C)c2ccccc21` by its z-score when you get a moment. category 1

Could you place `C=CC[C@]1(C(=O)N(C)C)COC(c2ccc(OCCCO)cc2)=N1` in its proper category? Many thanks. category 3

Which class holds CN1C(=O)C2C=CC(C(O)c3ccc(-c4ccccc4)s3)N(Nc3ccccc3)C2C1=O (stereo unspecified) ? category 2

Hi there! Could you help me figure out the category for `COC(=O)c1c(CC[C@@H](CO)NC(=O)N[C@@H](Cc2ccccc2)Cn2cc(-c3cncn3C)nn2)oc(C(C)=O)c1C(=O)OC` please? category 1

Field: class (z-score) — entry: `COCCOC(=O)N1C(=O)[C@@]2(c3cc(C#CC4=CCCCC4)ccc31)[C@H](C(=O)N1CCc3cc(OC)c(OC)cc3C1)[C@H]1C(=O)O[C@H](c3ccccc3)[C@H](c3ccccc3)N1[C@@H]2c1ccc(O)cc1` category 2

Please let me know in which category the item `O=C1N(CCS(=O)(=O)c2ccccc2)c2ccccc2[C@@H]2OC(c3ccc(OCCCO)cc3)=N[C@]12CCS(=O)(=O)c1ccccc1` belongs. category 3

Bin? `COC(=O)[C@H](Cc1ccc(O)cc1)N1CC2=CCCC=C[C@@H]2[C@H]1[C@H](O)Cc1ccccc1` category 3

Which bin, given its z-score, does `CCC[C@@H]1C=C(C(=O)OCC)[C@H](c2ccccc2)N1S(=O)(=O)c1ccc(C)cc1` occupy? category 2

# classify by z-score band: CC(C)C[C@H]1NC(=O)[C@@]23C(=O)N[C@@H](Cc4ccccc4)C2[C@H](C)[C@@]2(C)O[C@H]2C3/C=C/C/C=C\CNC(=O)[C@@H]2CCCN2C1=O (stereo partly specified) category 1

Could you tell me which band `C=CCOC(=O)[C@H]1[C@@H]2C(=O)O[C@@H](c3ccccc3)[C@@H](c3ccccc3)N2[C@@H](c2ccc(OCCOC(=O)[C@@H]3C[C@@H]4C(=O)N[C@@H](CC(C)C)C(=O)N4[C@@H]3c3ccc(O)cc3)cc2)[C@]12C(=O)Nc1ccc(I)cc12` belongs to? category 1

Class (by measured z-score) for `CN(C)CCCNC(=O)[C@@]1(Cc2ccccc2I)c2ccccc2C(=O)N(Cc2ccccc2)[C@H]1c1ccc(CO)cc1` category 1

Please report the category associated with `C#CCN=C(N)N` , nothing else. category 2

Dear colleague, I would appreciate it if you could identify the bin for `C=C(CCCC)/C(=C/C[C@H](OC(C)=O)c1cccc(OCCO)c1)c1cc(C(=O)OC)ccc1OC` and reply at your convenience. category 3
